test system: ACHN renal; assay: NCI tumour cell line growth inhibition, 48 h
Please provide measured TGI for the entries that follow.
Supply the numeric figure in µM, leaving out any unit text.

Enquiry: State the recorded TGI for this entry: `CCC[CH2][Ge]([CH2]CCC)([CH2]CCC)[O]C(=O)CCl`
Return: 18.4

Enquiry: State the recorded TGI for this entry: Cc1ccc(S(=O)(=O)ON=C2CC(c3ccccc3)N(C)C(c3ccccc3)C2)cc1 (stereo not given)
Return: 50.7

Enquiry: State the recorded TGI for this entry: C[C@@H]1CC2(N=CCS2)[C@]2(O)O[C@@H]3C[C@@]4(C)[C@H](C[C@H]3O[C@@H]2O1)C[C@H]1O[C@]12[C@@H]4[C@H](O)C(=O)[C@]1(C)C(C3=CC(=O)OC3)CC[C@]21O (stereo not given in full)
Return: 0.0149

Enquiry: State the recorded TGI for this entry: `C=C1C(=O)O[C@H]2[C@H](OC(C)=O)[C@@H](C)CCC/C(C)=C/CC[C@]3(CO3)[C@H](O)C[C@@H]12`
Return: 4.17

Enquiry: State the recorded TGI for this entry: `Oc1cc(Br)cc2cc(Br)cnc12`
Return: 47.4

Enquiry: State the recorded TGI for this entry: COc1cc(/C=C/C=C2\CC(C)C/C(=C\C=C\c3ccc(O)c(OC)c3)C2=O)ccc1O (stereo not given)
Return: 40.8

Enquiry: State the recorded TGI for this entry: `Nc1nc(Cl)cc(NCCCCCCCCCCNc2cc(Cl)nc(N)n2)n1`
Return: 0.0447

Enquiry: State the recorded TGI for this entry: Clc1cccc(C2SCc3nc4ccccc4n32)c1Cl (stereo not given)
Return: 35.3

Enquiry: State the recorded TGI for this entry: `O=c1c2cc(Cl)ccc2n2nnc3ccc(NCCNCCO)c1c32`
Return: 2.43

----------
Please provide measured TGI for the entries that follow.
tested on: IGROV1 ovarian; assay: NCI tumour cell line growth inhibition, 48 h

Enquiry: State the recorded TGI for this entry: Cn1c(=O)n2n(c1=O)C1C(=CC2)C2C=CC1n1c(=O)n(C)c(=O)n12 (configuration not stated)
Return: > 100 µM

Enquiry: State the recorded TGI for this entry: `Cc1ccc(C)c2sc3cc(=O)ccc-3nc12`
Return: > 100 µM

Enquiry: State the recorded TGI for this entry: `O=C(O)CNS(=O)(=O)c1ccc(NC(=O)c2cccc([N+](=O)[O-])c2)cc1`
Return: > 100 µM

Enquiry: State the recorded TGI for this entry: `O=c1[nH]nc(Cc2ccc([N+](=O)[O-])cc2)[nH]1`
Return: > 100 µM

Enquiry: State the recorded TGI for this entry: `Cc1ccc(NC(=O)NC23CC4CC(CC(F)(C4)C2)C3)cc1`
Return: > 100 µM

Enquiry: State the recorded TGI for this entry: `CCOC(=O)c1cc2cc([N+](=O)[O-])ccc2oc1=O`
Return: > 100 µM

Enquiry: State the recorded TGI for this entry: Cc1ccc(NC(=O)CCC(=O)C(C#N)c2ccc(Cl)cc2)cc1C (configuration not stated)
Return: > 100 µM

Enquiry: State the recorded TGI for this entry: `Cn1cnc([N+](=O)[O-])c1Sc1nncc2[nH]cnc12`
Return: > 100 µM

Enquiry: State the recorded TGI for this entry: C[C@@H]1CC2(N=CCS2)[C@]2(O)O[C@@H]3C[C@@]4(C)[C@H](C[C@H]3O[C@@H]2O1)C[C@H]1O[C@]12[C@@H]4[C@H](O)C(=O)[C@]1(C)C(C3=CC(=O)OC3)CC[C@]21O (some centres not stated)
Return: 0.159 µM

Enquiry: State the recorded TGI for this entry: COc1ccc(C2CC(C)=Nc3c([nH]c(=S)[nH]c3=O)N2)cc1 (configuration not stated)
Return: 34.5 µM

Enquiry: State the recorded TGI for this entry: Clc1cccc(Cl)c1C1ON=C(c2ccccc2)N1C12CC3CC(CC(C3)C1)C2 (configuration not stated)
Return: > 100 µM

Enquiry: State the recorded TGI for this entry: `C/C(=N\N=C(N)N)c1sc(-c2nc(C)c(/C(C)=N/N=C(N)N)s2)nc1C`
Return: > 100 µM

Enquiry: State the recorded TGI for this entry: `O=c1c2cc(Cl)ccc2n2nnc3ccc(NCCNCCO)c1c32`
Return: 6.26 µM

Enquiry: State the recorded TGI for this entry: COc1cc(SC)ccc1C(=O)N1CCCC(C)C1 (configuration not stated)
Return: > 100 µM

Enquiry: State the recorded TGI for this entry: `Cc1ccc(C)c(NC(=O)CCc2n[nH]c(=S)o2)c1`
Return: > 100 µM

Enquiry: State the recorded TGI for this entry: O=C1CCCC2COc3ccc(O)c1c32 (configuration not stated)
Return: > 100 µM

Enquiry: State the recorded TGI for this entry: `O=C(n1c(=O)n(-c2ccc([N+](=O)[O-])cc2)c(=O)n1C(=O)C(Cl)(Cl)Cl)C(Cl)(Cl)Cl`
Return: > 100 µM

Enquiry: State the recorded TGI for this entry: `O=C1CCC(c2ccccc2)(c2ccccc2)CC1`
Return: > 100 µM

Enquiry: State the recorded TGI for this entry: `CN(C)/C(=N/C(=O)Nc1ccccc1)SCc1ccccc1`
Return: > 100 µM

Enquiry: State the recorded TGI for this entry: `ClCc1ccc(Cn2cnc3ncnc(Cl)c32)cc1`
Return: 31.1 µM

Enquiry: State the recorded TGI for this entry: CCn1cc(C2NC(=O)c3cc(F)ccc3N2)c2cccc(Cl)c21 (configuration not stated)
Return: > 100 µM

Enquiry: State the recorded TGI for this entry: `CNc1ccc([N+](=O)[O-])cc1C(=O)N1CCC[C@H]1CO`
Return: > 100 µM

----------
Please provide measured TGI for the entries that follow.
system: MALME-3M melanoma; assay: NCI tumour cell line growth inhibition, 48 h

Enquiry: State the recorded TGI for this entry: `C/C(=N\NC(=S)Nc1ccc([N+](=O)[O-])cc1S(=O)(=O)O)c1ccccn1`
Return: > 100 µM

Enquiry: State the recorded TGI for this entry: CC[N+]1(C)CCC(O)(/C=C/c2ccc(Cl)c(Cl)c2)C(C(=O)/C=C/c2ccc(Cl)c(Cl)c2)C1 (stereo not given)
Return: 4.6 µM

Enquiry: State the recorded TGI for this entry: `NC(=O)Cn1c(=O)[nH]c(=O)c2[nH]cnc21`
Return: > 100 µM

Enquiry: State the recorded TGI for this entry: Cc1cc(Br)cc(C)c1NC(=O)C(=O)C(C(=O)c1ccc(Cl)c(Cl)c1)C1OC(=O)c2ccccc21 (stereo not given)
Return: > 100 µM

Enquiry: State the recorded TGI for this entry: C1CN(C23OC4(N5CCOCC5)C5C6CC(C7C6C4C72)C53)CCO1 (stereo not given)
Return: > 100 µM

----------
tested on: HCC-2998 colon; experiment: NCI tumour cell line growth inhibition, 48 h
Please provide measured GI50 for the entries that follow.

Enquiry: State the recorded GI50 for this entry: `Nc1ccccc1C#Cc1ccccc1C#CCCCCO`
Return: 14.6 µM

Enquiry: State the recorded GI50 for this entry: CC(Cl)CC(=O)Nc1ccc2c(c1)oc(=O)c1cc(NC(=O)CC(C)Cl)ccc12 (stereo unspecified)
Return: 34.9 µM

Enquiry: State the recorded GI50 for this entry: `O=c1c2c(=NCCCN3CCCC3)cc3c(=O)n(CCCN4CCCC4)c(=O)c4c(NCCCN5CCCC5)cc(c(O)n1CCCN1CCCC1)c2c4-3`
Return: 6.84 µM

Enquiry: State the recorded GI50 for this entry: CC(=O)OCC1OC(O[C@@H]2C[C@H]3C(C)(C)[C@H](OC(C)=O)CC[C@]3(C)[C@H]3CC[C@@H]4[C@]5(CC[C@@]4(C)[C@@]32C)O[C@@H]([C@H](O)C(C)(C)O)C[C@@H]5C)C(O)C(O)C1O (stereo partly specified)
Return: 3.64 µM

Enquiry: State the recorded GI50 for this entry: `CCC[CH2][Ge]([CH2]CCC)([CH2]CCC)[O]C(=O)CCl`
Return: 1.32 µM

Enquiry: State the recorded GI50 for this entry: `C/C(=N\n1c(N)c(C#N)c(-c2ccc(Cl)cc2)c(C#N)c1=O)c1cccnc1`
Return: > 100 µM

----------
test system: LOX IMVI melanoma; experiment: NCI tumour cell line growth inhibition, 48 h
Please provide measured TGI for the entries that follow.
Supply the numeric figure in µM, leaving out any unit text.

Enquiry: # get_value(readout= TGI, system= LOX IMVI melanoma) for COc1ccc(C2CC(C)=Nc3c([nH]c(=S)[nH]c3=O)N2)cc1 (stereo unspecified)
Return: 34.4

Enquiry: # get_value(readout= TGI, system= LOX IMVI melanoma) for CC(Cl)CC(=O)Nc1ccc2c(c1)oc(=O)c1cc(NC(=O)CC(C)Cl)ccc12 (stereo unspecified)
Return: 21.9

Enquiry: # get_value(readout= TGI, system= LOX IMVI melanoma) for `CN(C)CCCN1C(=O)N(CCCN(C)C)c2c3cc(O)ccc3nc3c([N+](=O)[O-])ccc1c23`
Return: 26.6

Enquiry: # get_value(readout= TGI, system= LOX IMVI melanoma) for COc1cccc(C2c3cc4c(cc3OC(N3CCOCC3)C2C)OCO4)c1 (stereo unspecified)
Return: 18.1

Enquiry: # get_value(readout= TGI, system= LOX IMVI melanoma) for `OCC1=C[C@@](COCc2ccccc2)(OCc2ccccc2)[C@@H](OCc2ccccc2)[C@@H]1OCc1ccccc1`
Return: 21.9

Enquiry: # get_value(readout= TGI, system= LOX IMVI melanoma) for `COc1ccc(/C(Cl)=C(\C=O)c2ccc(Cl)cc2)cc1`
Return: 23.8

Enquiry: # get_value(readout= TGI, system= LOX IMVI melanoma) for `Nc1ccccc1C#Cc1ccccc1C#CCCCCO`
Return: 32.6

Enquiry: # get_value(readout= TGI, system= LOX IMVI melanoma) for `Cc1cc(C(=O)NCCN(C)C)c2nc3ccccc3nc2c1`
Return: 9.17

Enquiry: # get_value(readout= TGI, system= LOX IMVI melanoma) for `NCCCN1CCN(CCCNc2ccc3ncn4c5ccccc5c(=O)c2c34)CC1`
Return: 4.07
